EXPERIMENTAL_ENDPOINT: melting point

Past entries and their recorded results:
| MOLECULE | melting point |
| --- | --- |
| CCc1nc(C)c2c(N)nc3ccccc3n12 | 192 to 195 °C |
| COc1cc(OC)c2nc(C)c3c(C)nc(-c4ccccc4Cl)n3c2c1 | 183 to 189 °C |
| Cc1nc(C2CCCCC2)n2c1c(Cl)nc1ccc(OCC3CC3)cc12 [Intermediate B13] | 165 to 168 °C |

Problem: Requested field: melting point. Item: CCCc1nc(C)c2c(Cl)nc3ccccc3n12 [Intermediate B4]
Result: 99 to 101 °C

Problem: Same thing, different molecule: Cc1nc(C2CCCCC2)n2c1c(Cl)nc1ccc(Cl)cc12 [Intermediate B9]
Result: 244 to 248 °C

Problem: What would you report for Cc1nc(C2CCCCC2)n2c1c(C)nc1ccc(Cl)cc12 ?
Result: 228 to 234 °C

Problem: CCc1nc(C)c2c(C)nc3ccc(N4CCCCC4)cc3n12 ?
Result: 132 to 134 °C

Problem: Another molecule: COc1cc(OC)c2nc(C)c3c(C)nc(C4CCCCC4)n3c2c1
Result: 219 to 222 °C

Problem: What about COc1cc(OC)c2nc(C)c3c(C)nc(-c4ccccc4C)n3c2c1 ?
Result: 168 to 169 °C

Problem: # iterate: CCCc1nc(C)c2c(Cl)nc3ccc(N4CCCCC4)cc3n12 [Intermediate B10]
Result: 105 to 108 °C

----------
Molecular target: human recombinant PDE10A (Homo sapiens, UniProt Q9Y233)
Construct: made in house; host or cells: SF21 insect cells (baculovirus)
Sequence (Q9Y233 1-779 isoform Q9Y233-1): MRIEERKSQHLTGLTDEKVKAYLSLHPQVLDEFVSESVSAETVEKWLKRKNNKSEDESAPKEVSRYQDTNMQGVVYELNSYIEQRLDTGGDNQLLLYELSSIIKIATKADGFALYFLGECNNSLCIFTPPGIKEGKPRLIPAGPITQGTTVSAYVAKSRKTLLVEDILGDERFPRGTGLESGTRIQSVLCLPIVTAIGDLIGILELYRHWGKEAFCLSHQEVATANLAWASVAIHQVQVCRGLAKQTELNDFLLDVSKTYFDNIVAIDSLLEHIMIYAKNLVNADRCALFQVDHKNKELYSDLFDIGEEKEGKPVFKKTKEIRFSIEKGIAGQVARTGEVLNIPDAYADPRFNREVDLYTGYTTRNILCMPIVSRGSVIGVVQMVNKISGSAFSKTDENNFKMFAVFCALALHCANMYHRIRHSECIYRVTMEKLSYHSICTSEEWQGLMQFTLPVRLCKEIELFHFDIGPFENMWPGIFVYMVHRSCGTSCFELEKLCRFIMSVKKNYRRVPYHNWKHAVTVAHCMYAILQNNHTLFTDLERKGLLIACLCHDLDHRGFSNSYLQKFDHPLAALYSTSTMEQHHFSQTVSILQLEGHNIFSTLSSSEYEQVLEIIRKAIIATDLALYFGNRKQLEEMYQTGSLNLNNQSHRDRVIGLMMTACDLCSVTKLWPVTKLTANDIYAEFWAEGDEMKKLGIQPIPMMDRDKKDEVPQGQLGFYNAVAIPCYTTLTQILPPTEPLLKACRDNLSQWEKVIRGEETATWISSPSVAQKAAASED
Assay: Inhibition of human recombinant PDE10A ([3H]-cAMP SPA, Method B)
Type: biochemical
Details: read-out: PDE10 inhibition IC50 [nM] PDE10A human
// reported IC50 per item

Some compounds with recorded IC50:
| COMPOUND | TESTED_SYSTEM | REPORTED_RESULT |
| --- | --- | --- |
| Cc1nc(F)ccc1-c1nc(C)c2c(C)nc3ccc(Cl)cc3n12 | human recombinant PDE10A (Homo sapiens, UniProt Q9Y233) | 10 to 100 nM |
| CCCc1nc(C)c2c(C)nc3cc(OC)ccc3n12 | human recombinant PDE10A (Homo sapiens, UniProt Q9Y233) | 10 to 100 nM |
| Cc1nc(-c2ccccc2Cl)n2c1c(C)nc1cc(OCc3cccc(N)c3)ccc12 | human recombinant PDE10A (Homo sapiens, UniProt Q9Y233) | 10 to 100 nM |
| Cc1nc(-c2ccccc2Cl)n2c1c(C)nc1c(OCC3CC3)cc(OCC3CC3)cc12 | human recombinant PDE10A (Homo sapiens, UniProt Q9Y233) | ≤ 10 nM |
| COc1cc(OC)c2nc(C)c3c(C)nc(-c4ccccc4Cl)n3c2c1 | human recombinant PDE10A (Homo sapiens, UniProt Q9Y233) | ≤ 10 nM |

Problem: Sample Cc1nc(F)ccc1-c1nc(C)c2c(C)nc3ccc(F)cc3n12 — what was its IC50?
Result: ≥ 100 nM

----------
Target: PDE10 from pig striatum (Sus scrofa)
Assay: Inhibition of PDE10 from pig striatum ([3H]-cAMP SPA, Methods A and B)
Type: biochemical
Settings: PDE10 pig
Procedure: Striatum from male Wistar rats (180-200 g), male hybrid pigs (150 kg) and male guinea pigs (CRL (HA), 500 g) respectively were collected and frozen at −70° C. […] PDE10 activity was determined in a one step procedure in microtiter plates. […] One hour later the mixture was measured in a liquid scintillation counter for microtiter plates (Microbeta Trilux). […] PDE10 activity was determined in a one step procedure in microtiterplates. […]
Item-by-item account of IC50

The following compounds have reported results that may help.
| COMPOUND | IC50 |
| --- | --- |
| Cc1nc(-c2ccccc2Cl)n2c1c(C)nc1c(OCC3CC3)cc(OCC3CC3)cc12 | ≤ 10 nM |
| COc1ccc2c(c1)nc(C)c1c(C)nc(-c3ccccc3Cl)n12 | ≤ 10 nM |
| CCCc1nc(C)c2c(C)nc3ccc(F)cc3n12 | 10 to 100 nM |
| CCCc1nc(C)c2c(OC)nc3ccc(F)cc3n12 | 10 to 100 nM |
| Cc1nc(C2CCCCC2)n2c1c(N)nc1ccc(F)cc12 | 10 to 100 nM |
| CCc1nc(C)c2c(Cl)nc3ccc(N4CCCCC4)cc3n12 [Intermediate B2] | 10 to 100 nM |
| CCc1nc(C)c2c(N)nc3ccc(F)cc3n12 | ≥ 100 nM |
| CCc1nc(C)c2c(Cl)nc3ccccc3n12 [Intermediate B3] | 10 to 100 nM |
| CCCc1nc(C)c2c(Cl)nc3ccccc3n12 [Intermediate B4] | 10 to 100 nM |
| CCc1nc(C)c2c(N)nc3ccccc3n12 | ≥ 100 nM |

Problem: Need IC50 of Cc1nc(-c2ccccc2C(F)(F)F)n2c1c(C)nc1ccc(F)cc12 , thanks.
Result: 10 to 100 nM

Problem: How about COc1cc(F)cc2c1nc(C)c1c(C)nc(-c3ccc(F)c(C(N)=O)c3)n12 ?
Result: ≤ 10 nM

Problem: And Cc1nc(-c2ccccc2Cl)n2c1c(C)nc1cc(OCc3ccc4ccccc4n3)ccc12 ?
Result: ≤ 10 nM

Problem: Similarly, Cc1nc(C2CCCCC2)n2c1c(C)nc1ccc(Cl)cc12 ?
Result: 10 to 100 nM

Problem: Then COc1cc(OC)c2nc(C)c3c(C)nc(-c4ccccc4C)n3c2c1 ?
Result: ≤ 10 nM

Problem: Can you handle Cc1nc(-c2ccccc2Cl)n2c1c(C)nc1cc(OCc3c(F)cccc3F)ccc12 next?
Result: ≤ 10 nM
